# System: NCI-H292 lung cancer cells
# measurement description: FDA drug screening, complete media vs cholesterol-free media without statin (TABLE 1)
# Assay type: cell-based, human
Counter-ions that a name gives are not always drawn.
Recorded Complete for the following compounds
Number only, no unit.

Ask: State, in one line, measured Complete of COc1cc2c(c(OC)c1OC)-c1ccc(OC)c(=O)cc1[C@@H](NC(C)=O)CC2
Result: 0.07073

Ask: Report measured Complete; entry is CC(C)(C)CC(C)(C)c1ccc(OCCOCC[N+](C)(C)Cc2ccccc2)cc1 [Benzethonium chloride]
Result: 0.2197

Ask: Give the measured Complete for CC[C@H]1CN2CCc3cc(OC)c(OC)cc3[C@@H]2C[C@@H]1C[C@H]1NCCc2cc(OC)c(OC)cc21 [Emetine (dihydrochloride hydrate)]
Result: 0.04288

Ask: Specify Complete for O=C([O-])c1ccccc1O.[Na+] [Sodium Salicylate] and stop.
Result: 0.943

Ask: Fill in reported Complete for this entry: CCN(CC)CCCC(C)Nc1ccnc2cc(Cl)ccc12 (stereo not drawn)
Result: 0.9181

Ask: Provide measured Complete value, entry: N#Cc1ccc(C2CCCc3cncn32)cc1 (stereo not drawn)
Result: 1.016

Ask: Hello, please tell me recorded Complete for this one: Cc1cc2c(s1)Nc1ccccc1N=C2N1CCN(C)CC1
Result: 0.9217

Ask: Given the compound CC(=C(CCO)SSCC1CCCO1)N(C=O)Cc1cnc(C)nc1N (stereo in doubt) , write its reported Complete.
Result: 1.162

Ask: Retrieve Complete measured for C[N+](C)(C)CCCCCCCCCC[N+](C)(C)C.[Br-].[Br-] [Decamethonium (Bromide)] and print it.
Result: 0.9062

Ask: Give recorded Complete. CC(C)=CCC/C(C)=C/CC/C(C)=C/CCC(=O)OC/C=C(\C)CCC=C(C)C [Gefarnate]
Result: 0.9135

Ask: Give Complete for O=C(O[C@H]1C[N+]2(CCCOc3ccccc3)CCC1CC2)C(O)(c1cccs1)c1cccs1.[Br-] [Aclidinium (Bromide)]
Result: 0.9873

Ask: For OC[C@H]1O[C@@H](n2cnc3c2NC=NC[C@H]3O)C[C@@H]1O , write its Complete.
Result: 0.8025

---

# System: NCI-H292 lung cancer cells
# measurement description: FDA drug screening, complete media vs cholesterol-free media with simvastatin (TABLE 2)
# Format: cell-based, human
# measurement parameters: NCI-H292 cells, complete media; FDA drug library screen (TABLE 2)
Structures can show the parent of a compound that is named as a salt.
measured metric: Complete Media

INSERT INTO measurements (compound, measured_metric, measured) VALUES
  ('Cc1cc(C#N)cc(C)c1Oc1nc(Nc2ccc(C#N)cc2)nc(N)c1Br', 'Complete Media', 0.8071);

Ask: Supply Complete Media measured with NCI-H292 lung cancer cells for COc1cccc2c1C(=O)c1c(O)c3c(c(O)c1C2=O)C[C@@](O)(C(=O)CO)C[C@@H]3O[C@H]1C[C@H](N)[C@H](O[C@@H]2CCCCO2)[C@H](C)O1 [Pirarubicin (Hydrochloride)] .
Result: 0.5244

Ask: Fill in: Complete Media on NCI-H292 lung cancer cells, entry COc1c(-c2ccc3cc(NS(C)(=O)=O)ccc3c2)cc(-n2ccc(=O)[nH]c2=O)cc1C(C)(C)C
Result: 1.064

Ask: State Complete Media (NCI-H292 lung cancer cells) of CN1CCc2c(c3ccccc3n2Cc2ccccc2)C1 [Mebhydrolin (napadisylate)] .
Result: 0.929

Ask: State, for NCI-H292 lung cancer cells, measured Complete Media of the compound listed here: O=C(O)C[C@@H]1CC[C@H](NC(=O)Cc2cccs2)B(O)O1
Result: 0.8532

Ask: Return reported Complete Media for target or system NCI-H292 lung cancer cells, item NC(=O)c1ccccc1O [Salicylamide] .
Result: 1.141

Ask: Jot down Complete Media (NCI-H292 lung cancer cells) of CCCN(CCc1cccs1)[C@H]1CCc2c(O)cccc2C1 .
Result: 1.07

Ask: Write down the reported Complete Media (system: NCI-H292 lung cancer cells) of CC(=O)OCC(=O)[C@@]1(O)CC[C@H]2[C@@H]3CCC4=CC(=O)C=C[C@]4(C)[C@@]3(Cl)[C@@H](Cl)C[C@@]21C [Dichlorisone acetate]
Result: 0.6906

---

# Test system: NCI-H292 lung cancer cells
# measurement description: FDA drug screening, complete media vs cholesterol-free media with simvastatin (TABLE 2)
# Format: cell-based, human
# measurement parameters: NCI-H292 cells, cholesterol-free media with simvastatin 0.04 μM; cell growth value in FDA drug screen
Structures can show the parent of a compound that is named as a salt.
Catalogue of compounds with associated Cholesterol-free media + simvastatin (0.04 μM)

Solved cases (5 shown):
INSERT INTO results (compound, measured_on, measured) VALUES
  ('O=C(C[S+]([O-])Cc1ccco1)NC/C=C\COc1cc(CN2CCCCC2)ccn1 (centres unmarked) [Lafutidine]', 'NCI-H292 lung cancer cells', 1.203),
  ('O=C1CC2(CCCC2)CC(=O)N1CCCCN1CCN(c2ncccn2)CC1 [Buspirone (hydrochloride)]', 'NCI-H292 lung cancer cells', 0.8828),
  ('Nc1ccn(C[C@@H](CO)OCP(=O)(O)O)c(=O)n1 [Cidofovir]', 'NCI-H292 lung cancer cells', 0.9844),
  ('C[C@@H]1C[C@H]2[C@@H]3C[C@H](F)C4=CC(=O)C=C[C@]4(C)[C@@]3(F)[C@@H](O)C[C@]2(C)[C@@]1(OC(=O)c1ccco1)C(=O)SCF [Fluticasone furoate]', 'NCI-H292 lung cancer cells', 0.7104),
  ('Nc1nc(=O)n([C@@H]2CS[C@H](CO)O2)cc1F [Emtricitabine]', 'NCI-H292 lung cancer cells', 1.347);

Ask: Respond only with Cholesterol-free media + simvastatin (0.04 μM) recorded for CN(C)CCCN1c2ccccc2CCc2ccc(Cl)cc21 [Clomipramine (hydrochloride)]
Result: 0.9105

Ask: Please report the measured Cholesterol-free media + simvastatin (0.04 μM) for C=C(CC)C(=O)c1ccc(OCC(=O)O)c(Cl)c1Cl [Ethacrynic acid]
Result: 1.155

Ask: For O=C(NCCO[N+](=O)[O-])c1cccnc1 [Nicorandil] , write its Cholesterol-free media + simvastatin (0.04 μM).
Result: 0.9809

---

The entries below are paired with their reported Cholesterol-free.
# Tested on: NCI-H292 lung cancer cells
# measurement description: FDA drug screening, complete media vs cholesterol-free media without statin (TABLE 1)
# Format: cell-based, human
# measurement parameters: NCI-H292 cells, FDA drug library screen, cholesterol-free media without statin

The following molecules have reported results that may help.
INSERT INTO assay_data (molecule, measured_on, measured_metric, measured) VALUES
  ('COc1ccc(-c2nc3ccc(C4=NNC(=O)CC4C)cc3[nH]2)cc1 (stereo not drawn) [Pimobendan]', 'NCI-H292 lung cancer cells', 'Cholesterol-free', 1.104),
  ('CC(=O)[C@@]1(O)CC[C@H]2[C@@H]3C[C@H](C)C4=CC(=O)C=C[C@]4(C)[C@@]3(F)[C@@H](O)C[C@@]21C [Fluorometholone]', 'NCI-H292 lung cancer cells', 'Cholesterol-free', 1.249);

Consider now this further molecule.
Ask: Please look at this molecule and report its Cholesterol-free: NC[C@@H]1O[C@H](O[C@H]2[C@@H](O)[C@H](O[C@@H]3[C@@H](O)[C@H](N)C[C@H](N)[C@H]3O[C@H]3O[C@H](CN)[C@@H](O)[C@H](O)[C@H]3N)O[C@@H]2CO)[C@H](N)[C@@H](O)[C@@H]1O.O=S(=O)(O)O [Neomycin (sulfate)]
Result: 1.592

---

# Tested on: NCI-H292 lung cancer cells
# measurement description: FDA drug screening, complete media vs cholesterol-free media with simvastatin (TABLE 2)
# Format: cell-based, human
# measurement parameters: NCI-H292 cells, FDA drug library screen, cholesterol-free media with simvastatin 0.04 μM
Counter-ions that a name gives are not always drawn.
measured metric: Cholesterol-free media + simvastatin (0.04 μM)
Please state the value as a number alone, without comment.

INSERT INTO measurements (molecule, measured) VALUES
  ('CC(C)(C)c1cc(C(C)(C)C)c(NC(=O)c2c[nH]c3ccccc3c2=O)cc1O', 1.021),
  ('O=c1[nH]c(=O)n(C2CCCO2)cc1F (stereo not shown)', 1.002),
  ('CC(C)NCC(O)COc1ccc(COCCOC(C)C)cc1.CC(C)NCC(O)COc1ccc(COCCOC(C)C)cc1.O=C(O)/C=C/C(=O)O (racemic) [(±)-Bisoprolol (hemifumarate)]', 0.9429),
  ('C[C@@H]1C[C@H]2[C@@H]3CCC4=CC(=O)C=C[C@]4(C)[C@@]3(F)[C@@H](O)C[C@]2(C)[C@@]1(O)C(=O)CO', 0.6107);

Ask: Read off the recorded Cholesterol-free media + simvastatin (0.04 μM) for CC[C@H](C)C(=O)O[C@H]1C[C@@H](C)C=C2C=C[C@H](C)[C@H](CC[C@@H]3C[C@@H](O)CC(=O)O3)[C@H]21
Result: 0.5184

Ask: Provide Cholesterol-free media + simvastatin (0.04 μM) value for the following molecule: COc1cc2c(cc1OC)C(=O)C(CC1CCN(Cc3ccccc3)CC1)C2 (stereo not shown)
Result: 1.009

Ask: Report Cholesterol-free media + simvastatin (0.04 μM) for O=C(CCC/C=C\C[C@@H]1[C@@H](CC[C@@H](O)CCc2ccccc2)[C@H](O)C[C@@H]1O)OCCCCO[N+](=O)[O-]
Result: 1.139

Ask: Return Cholesterol-free media + simvastatin (0.04 μM) (reported value) for this molecule: C=CC(=O)N1CCC[C@@H](n2nc(-c3ccc(Oc4ccccc4)cc3)c3c(N)ncnc32)C1
Result: 0.5962

Ask: Answer with the recorded Cholesterol-free media + simvastatin (0.04 μM) of CN1CCCN=C1/C=C/c1cccc(O)c1.O=C(O)c1cc2ccccc2c(Cc2c(O)c(C(=O)O)cc3ccccc23)c1O [Oxantel (pamoate)] only.
Result: 0.9072

Ask: Hello, please tell me recorded Cholesterol-free media + simvastatin (0.04 μM) for this one: Cc1cc(-c2ccccc2)nnc1NCCN1CCOCC1 [Minaprine (dihydrochloride)]
Result: 0.8439
